# System: Escherichia coli TOP10;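 further: peptides expressed intracellularly from a pBAD plasmid library in pooled LB shake-flask culture, induced with 0.3% L-arabinose, DNA abundance read by NGS, three biological replicates, DESeq2 with apeglm shrinkage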
# Assay Remarks: shrunken log2 fold change of peptide-encoding DNA abundance (4.5 h post-induction vs induction); higher = less antimicrobial activity (less host growth inhibition)
# Conditions Used: time post-induction: 4.5 h; library: site-saturation at positions 5, 18, 19, 20
Using shrunken log2 fold change as the sorting value, the categories are lower range = under -0.09, middle range = from -0.09 up to 0.08, upper range = 0.08 and over

**Q:** Lab note: which band did `RRIRYRPPRLPRPRPRPRKTPRP` land in?
**A:** middle range

**Q:** Could you tell me which band `RRIRDRPPRLPRPRPRPFFQPRP` belongs to?
**A:** lower range

**Q:** Given `RRIRMRPPRLPRPRPRPEQMPRP` , name the class its shrunken log2 fold change places it in.
**A:** upper range

**Q:** Could you place `RRIRNRPPRLPRPRPRPKQDPRP` in its proper category? Many thanks.
**A:** middle range

**Q:** Which of the defined bands does the recorded shrunken log2 fold change of `RRIRGRPPRLPRPRPRPSMAPRP` sit within?
**A:** upper range

**Q:** In plain terms, what class is `RRIRSRPPRLPRPRPRPHSYPRP` ?
**A:** lower range

**Q:** Category of `RRIRLRPPRLPRPRPRPKKLPRP` , please.
**A:** upper range

**Q:** Into which bin does this sequence go? `RRIRDRPPRLPRPRPRPNAYPRP`
**A:** middle range

**Q:** Place this sequence in its band: `RRIRERPPRLPRPRPRPDTIPRP`
**A:** middle range

**Q:** Class (by measured shrunken log2 fold change) for `RRIRIRPPRLPRPRPRPGSWPRP`
**A:** upper range

**Q:** Any idea which band `RRIRMRPPRLPRPRPRPWFIPRP` is in?
**A:** lower range

**Q:** Tag the class for `RRIRYRPPRLPRPRPRPWGKPRP`
**A:** lower range

**Q:** GET /class?item= `RRIRMRPPRLPRPRPRPKSRPRP`
**A:** middle range

**Q:** In plain terms, what class is `RRIRQRPPRLPRPRPRPATYPRP` ?
**A:** lower range

**Q:** For this sequence, which bin applies? `RRIRWRPPRLPRPRPRPQVAPRP`
**A:** upper range

**Q:** Bin? `RRIRARPPRLPRPRPRPLMRPRP`
**A:** upper range

**Q:** Given `RRIRARPPRLPRPRPRPGFIPRP` , name the class its shrunken log2 fold change places it in.
**A:** lower range

**Q:** For `RRIRYRPPRLPRPRPRPDWNPRP` , which shrunken log2 fold change bin applies?
**A:** lower range

**Q:** Please report the category associated with `RRIRIRPPRLPRPRPRPAFVPRP` , nothing else.
**A:** middle range

**Q:** Sort `RRIRTRPPRLPRPRPRPEEHPRP` into one of the categories.
**A:** middle range

**Q:** Would you mind sorting `RRIRCRPPRLPRPRPRPSQLPRP` into the appropriate category?
**A:** lower range

**Q:** Hello team, could you let me know which band the following sequence falls into: `RRIRSRPPRLPRPRPRPMQCPRP`
**A:** middle range

**Q:** Each sequence maps to one class by shrunken log2 fold change. Which class for `RRIRARPPRLPRPRPRPQKYPRP` ?
**A:** lower range

**Q:** State the class of the sequence shown: `RRIRQRPPRLPRPRPRPAWTPRP`
**A:** lower range

**Q:** For `RRIRWRPPRLPRPRPRPRARPRP` , which shrunken log2 fold change bin applies?
**A:** upper range

**Q:** Assign a bin to `RRIRMRPPRLPRPRPRPTGNPRP`
**A:** upper range

**Q:** Bin? `RRIRMRPPRLPRPRPRPLTPPRP`
**A:** upper range

**Q:** In plain terms, what class is `RRIRRRPPRLPRPRPRPLSAPRP` ?
**A:** upper range
